test: qHTS Assay for Identification of Small Molecule Antagonists for NFkB Signaling Pathway (AID 895); conditions: NFkB beta-lactamase reporter cells, FRET ratio 460/530, stimulated with 10 pM TNF alpha; series mostly up to 38.3 µM
Results filed as inconclusive are left out. Calls of active or inactive are those of the source. Calls come from the whole dose curve; as a rule, active = well fitted inhibition curve with a large enough effect in the signal ratio, with a control signal flat (not every such curve was filed as active); inconclusive = small, poorly fitted or top-dose-only effect, or effect the other way, or a change in a side signal; inactive = flat fitted curve, though single readings scatter; the % refers to the signal ratio.
// one of yes (1) for active, no (0) for inactive, no free text

Below, 5 compounds whose answers are already recorded.
COc1cccc(OC)c1OCCNC[C@@H]1CSc2ccccc2O1 : no (0)
N#C[C@@H](Cc1ccc(O)c(O)c1)C(=O)N1CCc2ccccc21 : yes (1)
N[C@H](Cc1cccc(-c2ccccc2CP(=O)(O)O)c1)C(=O)O : no (0)
CCCCC[C@H](O)CCCC(=O)O : yes (1)
COc1cc([C@H]2c3cc4c(cc3[C@@H](O)[C@@H]3COC(=O)[C@H]23)OCO4)cc(OC)c1OC : no (0)

q: For this compound, state the assay outcome: `CC[C@]1(O)C[C@H]2CN(CCc3c([nH]c4ccccc34)[C@](C(=O)OC)(c3cc4c(cc3OC)N(C=O)[C@H]3[C@@](O)(C(=O)OC)[C@H](OC(C)=O)[C@@]5(CC)C=CCN6CC[C@]43[C@H]65)C2)C1`
a: no (0)
